ASSAY_REMARKS: PK, intravenous administration
Type: in vivo
PARTICULARS: rat, plasma, male Sprague Dawley rats, dose about 1 mg/kg
READOUT_NAME: AUC (ng·h/mL)

In [3]: df
Out[3]:
                                   compound  units_of_measure  reading
0  CC(C)c1cc(F)cc(C(C)C)c1Nc1nnc(S(=O)(=O)N2CCC(N(C)C)CC2)[nH]1 [Example 303]           ng·h/mL      200
1  CN(C)CC1CCN(S(=O)(=O)c2nnc(Nc3c4c(cc5c3CCC5)CCC4)[nH]2)C1 (centres unmarked) [Example 119]           ng·h/mL      162
2  O=S(=O)(CCCN1CCCC1)c1nnc(Nc2c3c(cc4c2CCC4)CCC3)[nH]1 [Example 49]           ng·h/mL      168
3  COc1cc(-c2c(C)cc3c(c2Nc2nnc(S(=O)(=O)N4CCC(N(C)C)CC4)[nH]2)CCC3)ccn1 [Example 216]           ng·h/mL      224
4  CN1CCCC1CCS(=O)(=O)c1nnc(Nc2c3c(cc4c2CCC4)CCC3)[nH]1 (centres unmarked) [Example 60]           ng·h/mL      278
5  CCN(CC)CCCS(=O)(=O)c1nnc(Nc2c(-c3ccnc(OC)c3)cc(F)cc2C(C)C)[nH]1 [Example 79]           ng·h/mL      277
6  COc1cc(-c2ccc3c(c2Nc2nnc(S(=O)(=O)c4ccccc4C#N)[nH]2)CCC3)ccn1 [Example 310]           ng·h/mL      221
7  CC(C)c1cc(F)cc(-c2ccncc2)c1Cc1nnc(S(=O)(=O)N2CCC(CN(C)C)C2)[nH]1 (centres unmarked) [Example 153]           ng·h/mL      198

###

Below: a set of entries, each annotated with reported pIC50.
SYSTEM_TESTED: NLRP3 (Homo sapiens)
Sequence (Q96P20 whole entry): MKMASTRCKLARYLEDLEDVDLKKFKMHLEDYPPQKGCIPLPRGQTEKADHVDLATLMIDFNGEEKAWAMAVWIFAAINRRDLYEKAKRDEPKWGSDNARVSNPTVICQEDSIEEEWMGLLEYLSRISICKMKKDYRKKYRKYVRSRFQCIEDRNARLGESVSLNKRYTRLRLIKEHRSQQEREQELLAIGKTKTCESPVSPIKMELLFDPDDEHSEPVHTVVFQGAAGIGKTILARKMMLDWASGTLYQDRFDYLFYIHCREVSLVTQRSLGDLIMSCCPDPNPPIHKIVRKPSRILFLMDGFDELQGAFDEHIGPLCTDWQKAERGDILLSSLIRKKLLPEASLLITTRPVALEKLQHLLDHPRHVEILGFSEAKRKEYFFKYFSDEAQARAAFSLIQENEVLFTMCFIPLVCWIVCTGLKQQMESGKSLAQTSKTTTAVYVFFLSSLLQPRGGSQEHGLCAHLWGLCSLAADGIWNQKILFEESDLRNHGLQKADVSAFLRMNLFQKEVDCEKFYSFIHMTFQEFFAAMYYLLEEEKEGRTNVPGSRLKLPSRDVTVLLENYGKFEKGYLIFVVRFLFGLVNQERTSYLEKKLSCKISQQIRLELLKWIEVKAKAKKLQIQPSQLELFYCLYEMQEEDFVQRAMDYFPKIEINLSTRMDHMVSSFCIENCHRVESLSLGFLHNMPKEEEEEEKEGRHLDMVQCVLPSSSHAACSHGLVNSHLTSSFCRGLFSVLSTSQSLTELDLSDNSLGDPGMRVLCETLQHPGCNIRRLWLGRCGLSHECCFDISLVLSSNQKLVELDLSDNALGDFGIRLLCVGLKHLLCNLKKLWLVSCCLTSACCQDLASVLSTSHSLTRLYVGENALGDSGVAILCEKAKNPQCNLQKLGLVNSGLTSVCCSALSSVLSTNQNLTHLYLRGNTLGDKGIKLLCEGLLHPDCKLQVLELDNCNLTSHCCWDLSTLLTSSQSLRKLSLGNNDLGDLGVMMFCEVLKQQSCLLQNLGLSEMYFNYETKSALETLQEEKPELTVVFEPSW
ASSAY_REMARKS: THP-1 cells pyroptosis assay
Assay type: cell-based
Design: Seed THP-1 cells (25,000 cells/well) containing 1.0 μg/ml LPS; host or cells: THP-1
PARTICULARS: LPS 1.0 μg/ml, nigericin 5 μM, resazurin readout, 10 μM top dose (Example 2: top dose of 30 μM)
pIC50: −log10 of the molar value.

Examples with their reported pIC50 follow.
>>> print(df.to_string())
                                   molecule  reading
0  CCNCCCS(=O)(=O)c1nnc(Nc2c3c(cc4c2CCC4)CCC3)[nH]1 [Example 55]   ≥ 5.30
1  Cn1ncc(S(=O)(=O)c2nnc(Nc3c4c(cc5c3CCC5)CCC4)[nH]2)c1C#N [Example 355]   ≥ 5.30
2  COCC(C)Oc1cc(-c2c(C)cc3c(c2Nc2nnc(S(C)(=O)=O)[nH]2)CCC3)ccn1 (stereo not shown) [Example 363]   ≥ 5.30
3  [2H]C([2H])([2H])Oc1cc(-c2ccc3c(c2Nc2nnc(S(=O)(=O)N4CC[C@H](C(C)(C)O)C4)[nH]2)CCC3)ccn1 [Example 344]   ≥ 6.30
4  CN1CCN(S(=O)(=O)c2nnc(Nc3c4c(cc5c3CCC5)CCC4)[nH]2)CC1 [Example 100]   ≥ 5.30
5  O=S(=O)(c1nnc(Nc2c3c(cc4c2CCC4)CCC3)[nH]1)N1CCC2(CCN2C2CC2)CC1 [Example 254]   ≥ 6.30

Proceed to the following item.
Data request: What measured pIC50 goes with COc1cc(-c2ccc3c(c2Cc2nnc(S(=O)(=O)c4ccn(C(C)C)n4)[nH]2)CCC3)ccn1 [Example 32] ?
Data returned: ≥ 5.30
